The measured values listed here are drawn from patent US20100261660A1.

target: T1, Soluble CD28-Ig (extracellular domain of human CD28 fused to the Fc portion of human IgG1) (human, UniProt P10747 19-152, biotin-conjugated (NHS-biotin) in the FACS binding assays); experiment: competitive FACS on transfected cells, biotin-sCD28-Ig with FITC-sCTLA-4-Ig; grade 0-2 of CD28/CTLA-4 ratio vs WT hB7-1
T1 construct: extracellular domain; bought from R&D Systems; also called sCD28-Ig; CD28-Ig Fc; not shown: Fc portion of human IgG1
For each record, write down the corresponding Binding Score.
One number for each entry.

# binder, experimental.value
measured = [
    ("Round 2 CD28B2-8 (ligand) ITPKSVTKRVKETVMLSCDYNTSTEELTSLRIYWQKDSKMVLAILPGKVQVWPEYKNRTITDMNDNPRIVILALRLSDKGTYTCVIQKPVLKGAYKLEHLASVRLMIRADFPVPTINDLGNPSPNIRRLICSTSGGFPRPHLYWLENGEELNATNTTVSQDPGTELYMISSELDFNVTNNHSIVCLIKYGELSVSQIFPWSKPKQEPPIDQLPFWVIIPVSGALVLTAVVLYCLACRHVARWKRTRRNEETVGTERLSPIYLGSAQSSG", 1),
]

Next:
Prompt line: // fetch Binding Score given entry Round 1 CD28BP-118 (ligand, also called R1clone 118; Clone 118) GISQVTKSVKEMAALSCDYNISIDELARMRIYWQKDQQMVLSIISGQVEVWPEYKNRTFPDIINNLSLMILALRLSDKGTYTCVVQKNENGSFRREHLTSVTLSIRADFPVPSITDIGHPAPNVKRIRCSASGDFPEPRLAWMEDGEELNAVNTTVDQDLDTELYSVSSELDFNVTNNHSIVCLIKYGELSVSQIFPWSKPKQEPPIDQLPFWVIIPVSGALVLTAVVLYCLACRHVARWKRTRRNEETVGTERLSPIYLGSAQSSG
Response line: 1
